- system: UniProt:Q12809
- Sequence (Q12809 whole entry): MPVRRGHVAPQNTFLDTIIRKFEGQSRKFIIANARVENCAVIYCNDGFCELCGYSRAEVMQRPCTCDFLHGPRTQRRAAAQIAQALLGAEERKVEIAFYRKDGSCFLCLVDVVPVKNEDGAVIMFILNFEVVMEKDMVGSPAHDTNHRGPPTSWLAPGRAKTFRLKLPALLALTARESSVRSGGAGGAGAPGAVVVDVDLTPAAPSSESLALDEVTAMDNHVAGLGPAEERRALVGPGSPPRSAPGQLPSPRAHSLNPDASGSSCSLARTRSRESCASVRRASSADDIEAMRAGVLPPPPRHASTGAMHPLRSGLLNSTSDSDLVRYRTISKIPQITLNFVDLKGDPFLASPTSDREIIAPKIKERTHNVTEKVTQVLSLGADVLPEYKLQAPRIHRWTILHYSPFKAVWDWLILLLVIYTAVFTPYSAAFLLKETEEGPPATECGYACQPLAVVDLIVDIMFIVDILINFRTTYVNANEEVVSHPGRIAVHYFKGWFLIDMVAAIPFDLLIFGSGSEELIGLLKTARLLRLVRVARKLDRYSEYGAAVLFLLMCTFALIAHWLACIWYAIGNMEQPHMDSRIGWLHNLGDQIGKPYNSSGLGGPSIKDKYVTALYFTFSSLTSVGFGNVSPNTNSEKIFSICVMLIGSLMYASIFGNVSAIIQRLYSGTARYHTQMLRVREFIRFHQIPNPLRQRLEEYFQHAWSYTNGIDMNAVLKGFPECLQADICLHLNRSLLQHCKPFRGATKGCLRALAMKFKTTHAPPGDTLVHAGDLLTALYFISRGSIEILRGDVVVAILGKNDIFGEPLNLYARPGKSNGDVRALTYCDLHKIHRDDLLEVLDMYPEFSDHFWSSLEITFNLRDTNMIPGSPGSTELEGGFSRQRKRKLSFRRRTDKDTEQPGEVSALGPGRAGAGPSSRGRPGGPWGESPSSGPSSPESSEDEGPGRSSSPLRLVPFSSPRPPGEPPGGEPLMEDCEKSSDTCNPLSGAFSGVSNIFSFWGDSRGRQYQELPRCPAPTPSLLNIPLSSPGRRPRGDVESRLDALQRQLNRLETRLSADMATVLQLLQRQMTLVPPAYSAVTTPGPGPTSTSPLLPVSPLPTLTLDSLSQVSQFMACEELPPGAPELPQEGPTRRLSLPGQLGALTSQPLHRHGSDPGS
- assayComment: Inhibition of human ERG at 10 uM
quantity: inhibition at 10 µM (%)
Please state the figure in %; there is no need to write the unit.

Which inhibition at 10 µM value belongs to Cc1c(Nc2ccc(C#N)cc2Cl)ncnc1O[C@H]1CC2CC[C@@H](C1)N2S(=O)(=O)C1CC1 (single isomer, unassigned) ?
9

====

- system: Glucose-dependent insulinotropic receptor (Mus musculus, UniProt Q7TQP3)
- Sequence (Q7TQP3 whole entry): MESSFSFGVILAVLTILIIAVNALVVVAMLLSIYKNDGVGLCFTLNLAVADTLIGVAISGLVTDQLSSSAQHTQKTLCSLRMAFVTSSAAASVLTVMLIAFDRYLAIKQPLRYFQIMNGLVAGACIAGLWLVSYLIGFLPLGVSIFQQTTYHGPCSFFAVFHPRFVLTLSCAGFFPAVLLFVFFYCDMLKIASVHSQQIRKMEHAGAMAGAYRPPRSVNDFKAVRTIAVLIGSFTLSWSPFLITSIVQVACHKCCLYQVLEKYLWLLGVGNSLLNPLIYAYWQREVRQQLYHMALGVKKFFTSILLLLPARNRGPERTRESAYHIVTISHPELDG
- assayComment: Agonist activity at mouse GPR119 expressed in HEK293 cells assessed as stimulation of cMAP level by cell-based cAMP assay
// pEC50 lookup, one value per entry
Lab note: report pEC50 as minus log10 of the concentration in molar units, number only.

The following compounds have reported results that may help.
Cc1c(Nc2ccc(F)cc2C#N)ncnc1O[C@H]1CC2CC[C@@H](C1)N2S(=O)(=O)C1CC1 (single isomer, unassigned)
6.09
Cc1c(Nc2ccccc2C#N)ncnc1O[C@H]1CC2CC[C@@H](C1)N2S(=O)(=O)C1CC1 (single isomer, unassigned)
6.74
Cc1ncccc1Oc1ncnc(O[C@H]2CC3CC[C@@H](C2)N3S(=O)(=O)C2CC2)c1C (single isomer, unassigned)
7.20

Return reported pEC50; argument: Cc1ncccc1Oc1ncnc(O[C@H]2CC3CC[C@@H](C2)N3S(=O)(=O)CC(F)(F)F)c1C (single isomer, unassigned)
6.18

Consider next the compound Cc1ncccc1Oc1ncnc(O[C@H]2CC3CC[C@@H](C2)N3C(=O)OCC2CC2)c1C (single isomer, unassigned) in the same way.
5.12

Now consider Cc1ncccc1Oc1ncnc(O[C@H]2CC3C=C[C@@H](C2)N3S(=O)(=O)C2CC2)c1C (single isomer, unassigned) .
6.62

Please do the same for Cc1ncccc1Oc1ncnc(O[C@H]2CC3CC[C@@H](C2)N3C(=O)OC(C)C)c1C (single isomer, unassigned) as well.
7.26

====

- assayComment: Plasma concentration in lean mouse at 30 mg/kg, po after 60 mins
- Type: ADME, organism-based
- Design: dose 30 mg/kg, route oral
quantity: concentration at 1 h (µM)
Kindly provide the numeric value in µM only, without the unit symbol.

Cc1c(Nc2ccc(C#N)cc2Cl)ncnc1O[C@H]1CC2CC[C@@H](C1)N2S(=O)(=O)C1CC1 (single isomer, unassigned)
1.4

Would you kindly look at the next entry?
Fill blank: measured concentration at 1 h of the compound CC(C)OC(=O)N1CCC(Oc2cc(Oc3ccc(S(C)(=O)=O)cc3F)ncn2)CC1 is ____.
12.7

====

- system: Glucose-dependent insulinotropic receptor (Mus musculus)
- assayComment: Agonist activity at mouse GPR119 expressed in HEK293 cells assessed as maximal stimulation of cMAP level by cell-based cAMP assay relative to 21
- Assay type: functional
quantity: Activity (%)
Kindly answer with a numeric value in %, unit omitted.

Examples from the recorded data:
Cc1ncccc1Oc1ncnc(O[C@H]2CC3CC[C@@H](C2)N3S(=O)(=O)c2ccc(Cl)s2)c1C (single isomer, unassigned)
77
Cc1c(Nc2ccc(C#N)cc2Cl)ncnc1O[C@H]1CC2CC[C@@H](C1)N2S(=O)(=O)C1CC1 (single isomer, unassigned)
110
Cc1c(Oc2ccc(Cl)cc2C#N)ncnc1O[C@H]1CC2CC[C@@H](C1)N2S(=O)(=O)C1CC1 (single isomer, unassigned)
44

Which Activity is listed for Cc1ncccc1Oc1ncnc(O[C@H]2CC3CC[C@@H](C2)N3S(=O)(=O)C2CC2)c1C (single isomer, unassigned) ?
76

Another compound to check: Cc1ncccc1Oc1ncnc(O[C@H]2CC3CC[C@@H](C2)N3S(=O)(=O)c2ccc(F)cc2)c1C (single isomer, unassigned)
78

Would you mind doing Cc1ncccc1Nc1ncnc(O[C@H]2CC3CC[C@@H](C2)N3S(=O)(=O)C2CC2)c1C (single isomer, unassigned) as well?
110

Next up: Cc1ncccc1Oc1ncnc(O[C@H]2CC3CC[C@@H](C2)N3S(=O)(=O)CC(C)C)c1C (single isomer, unassigned)
69

And for Cc1ncccc1Oc1ncnc(O[C@H]2CC3CC[C@@H](C2)N3C(=O)OCC(F)(F)F)c1C (single isomer, unassigned) ?
20

Same question, Cc1ncccc1Oc1ncnc(O[C@H]2CC3C=C[C@@H](C2)N3S(=O)(=O)C2CC2)c1C (single isomer, unassigned) this time
78

Please answer likewise for CCOC(=O)N1C2CC[C@H]1C[C@@H](Oc1ncnc(Oc3cccnc3C)c1C)C2 (single isomer, unassigned)
25

Also check Cc1ncccc1Oc1ncnc(O[C@H]2CC3CC[C@@H](C2)N3C(=O)OC2(C)CC2)c1C (single isomer, unassigned)
12

What about this compound? Cc1ncccc1Oc1ncnc(O[C@H]2CC3CC[C@@H](C2)N3S(=O)(=O)CCC(F)(F)F)c1C (single isomer, unassigned)
62

Similarly, Cc1c(Nc2ccc(C#N)cc2F)ncnc1O[C@H]1CC2CC[C@@H](C1)N2S(=O)(=O)C1CC1 (single isomer, unassigned) ?
84

Another compound to check: Cc1ncccc1Oc1ncnc(O[C@H]2CC3CC[C@@H](C2)N3C(=O)OCC2CC2)c1C (single isomer, unassigned)
33

====

- system: Glucose-dependent insulinotropic receptor (Mus musculus, UniProt Q7TQP3)
- assayComment: Agonist activity at mouse GPR119 expressed in HEK293 cells assessed as stimulation of cMAP level by cell-based cAMP assay
quantity: pEC50
Scale: negative log10 of molar concentration, which is what pEC50 denotes.

For orientation, consider the following solved cases.
CCCS(=O)(=O)N1C2CC[C@H]1C[C@@H](Oc1ncnc(Oc3cccnc3C)c1C)C2 (single isomer, unassigned)
7.28
CCCCS(=O)(=O)N1C2CC[C@H]1C[C@@H](Oc1ncnc(Oc3cccnc3C)c1C)C2 (single isomer, unassigned)
7.59
Cc1ncccc1Oc1ncnc(O[C@H]2C[C@@H]3CC(F)[C@@H](C2)N3S(=O)(=O)C2CC2)c1C (some centres not stated)
6.15
Cc1c(Oc2ccccc2C#N)ncnc1O[C@H]1CC2CC[C@@H](C1)N2S(=O)(=O)C1CC1 (single isomer, unassigned)
7.17
Cc1ncccc1Oc1ncnc(O[C@H]2CC3CC[C@@H](C2)N3S(=O)(=O)CCC(F)(F)F)c1C (single isomer, unassigned)
6.60

I have this compound here, Cc1c(Nc2ccc(S(C)(=O)=O)cc2F)ncnc1O[C@H]1CC2CC[C@@H](C1)N2S(=O)(=O)C1CC1 (single isomer, unassigned) , and I need its recorded pEC50.
6.19

Now the same for Cc1ncccc1Oc1ncnc(O[C@@H]2CC3CC[C@@H](C2)N3C(=O)OC(C)(C)C)c1C (single isomer, unassigned; 20f)
6.52

====

- system: Cytochrome P450 2C9 (Homo sapiens, UniProt P11712)
- Sequence (P11712 whole entry): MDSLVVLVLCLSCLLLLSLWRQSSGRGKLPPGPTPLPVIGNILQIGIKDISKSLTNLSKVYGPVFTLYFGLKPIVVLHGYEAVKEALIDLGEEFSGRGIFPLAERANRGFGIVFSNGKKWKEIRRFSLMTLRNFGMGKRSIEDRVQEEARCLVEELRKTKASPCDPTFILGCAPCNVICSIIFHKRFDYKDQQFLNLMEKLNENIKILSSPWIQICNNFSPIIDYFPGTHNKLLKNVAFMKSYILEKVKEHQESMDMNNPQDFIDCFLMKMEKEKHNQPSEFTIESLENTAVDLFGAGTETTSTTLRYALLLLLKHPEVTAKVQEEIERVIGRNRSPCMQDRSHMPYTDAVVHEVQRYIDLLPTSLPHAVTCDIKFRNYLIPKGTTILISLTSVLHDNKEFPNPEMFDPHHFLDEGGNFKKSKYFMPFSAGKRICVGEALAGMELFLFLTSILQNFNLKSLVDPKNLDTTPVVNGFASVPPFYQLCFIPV
quantity: IC50

Given the molecule Cc1c(Nc2ccc(C#N)cc2Cl)ncnc1O[C@H]1CC2CC[C@@H](C1)N2S(=O)(=O)C1CC1 (single isomer, unassigned) , what is its reported IC50?
> 20 µM

====

- system: Glucose-dependent insulinotropic receptor (Mus musculus)
- assayComment: Agonist activity at mouse GPR119 expressed in HEK293 cells assessed as stimulation of cMAP level by cell-based cAMP assay
quantity: EC50 (µM)
Respond with the bare value in µM.

Reference set (4 entries):
Cc1c(Oc2ccc(Cl)cc2C#N)ncnc1O[C@H]1CC2CC[C@@H](C1)N2S(=O)(=O)C1CC1 (single isomer, unassigned)
0.29
Cc1ncccc1Oc1ncnc(O[C@H]2CC3C=C[C@@H](C2)N3C(=O)OC(C)C)c1C (single isomer, unassigned)
0.052
Cc1ncccc1Nc1ncnc(O[C@H]2CC3CC[C@@H](C2)N3S(=O)(=O)C2CC2)c1C (single isomer, unassigned)
2
CCOC(=O)N1C2CC[C@H]1C[C@@H](Oc1ncnc(Oc3cccnc3C)c1C)C2 (single isomer, unassigned)
0.324

For the compound shown here, Cc1ncccc1Oc1ncnc(O[C@H]2CC3CC[C@@H](C2)N3S(=O)(=O)CC(C)C)c1C (single isomer, unassigned) , give the reported EC50.
0.07

Can you check Cc1ncccc1Oc1ncnc(O[C@H]2CC3CC[C@@H](C2)N3C(=O)OCC(F)(F)F)c1C (single isomer, unassigned) next?
10.4

====

- system: Glucose-dependent insulinotropic receptor (Mus musculus)
- assayComment: Agonist activity at mouse GPR119 expressed in HEK293 cells assessed as maximal stimulation of cMAP level by cell-based cAMP assay relative to 21
- Assay type: functional
quantity: Activity (%)
All answers are understood in %, so give the number only.

Worked examples follow.
CCCS(=O)(=O)N1C2CC[C@H]1C[C@@H](Oc1ncnc(Oc3cccnc3C)c1C)C2 (single isomer, unassigned)
49
CCCCS(=O)(=O)N1C2CC[C@H]1C[C@@H](Oc1ncnc(Oc3cccnc3C)c1C)C2 (single isomer, unassigned)
29
Cc1ncccc1Oc1ncnc(O[C@H]2C[C@@H]3CC(F)[C@@H](C2)N3S(=O)(=O)C2CC2)c1C (stereo partly drawn)
74

For Cc1c(Nc2ccc(F)cc2C#N)ncnc1O[C@H]1CC2CC[C@@H](C1)N2S(=O)(=O)C1CC1 (single isomer, unassigned) , what is its reported Activity?
110

Can you handle CC(C)OC(=O)N1CCC(Oc2cc(Oc3ccc(S(C)(=O)=O)cc3F)ncn2)CC1 next?
100

Please give the result for Cc1c(Oc2ccccc2Cl)ncnc1O[C@H]1CC2CC[C@@H](C1)N2S(=O)(=O)C1CC1 (single isomer, unassigned) too.
58

Can you check Cc1ncccc1Oc1ncnc(O[C@@H]2CC3CC[C@@H](C2)N3C(=O)OC(C)(C)C)c1C (single isomer, unassigned; 20f) next?
20

Next entry: Cc1ncccc1Oc1ncnc(O[C@H]2C[C@H]3CC[C@@H](C2)N3C(=O)OC(C)C2CC2)c1C (stereo partly drawn)
31
